- protocol-description: In-vivo pharmacokinetic study in mice
- Parameters: species or system male CD-1 mice
- setup-conditions: male, CD-1, mouse, plasma, oral administration, dose 10 mg/kg
observation-type: Cmax (µM)

compound="Cc1nc(N2CCC3(CC2)Cn2nccc2C3N)c(CO)nc1Sc1ccnc(N)c1Cl (stereo not shown)" value_measured=3.54

====

- protocol-description: In-vivo pharmacokinetic study in rats
- setup-conditions: male, SD, rat, plasma, iv, injection (tail vein), dose 2 mg/kg
observation-type: clearance (mL/min/kg)

molecule="Cc1nc(N2CCC3(CC2)Cn2nccc2C3N)c(CO)nc1Sc1ccnc(N)c1Cl (stereo not shown)" observation_type=clearance value_measured=17.3

====

- protocol-description: In-vivo pharmacokinetic study in mice
- Parameters: species or system male CD-1 mice
- setup-conditions: male, CD-1, mouse, plasma, oral administration, dose 10 mg/kg
- Method: This experiment was intended to evaluate the pharmacokinetic behavior of each compound after a single intravenous injection and intragastric administration and to investigate the bioavailability after intragastric administration. Male CD-1 mice aged 7 to 10 weeks were selected. The mice were fasted for at least 12 h before administration and were allowed to feed again 4 h after administration, with free access to water throughout the experiment. […]
observation-type: AUC(0-t) (µM·h)

compound="Cc1nc(N2CCC3(CC2)Cn2nccc2C3N)c(CO)nc1Sc1ccnc(N)c1Cl (stereo not shown)" value_measured=8.6

====

- protocol-description: In-vivo pharmacokinetic study in rats
- setup-conditions: male, SD, rat, plasma, oral administration, dose 20 mg/kg
- Experimental: This experiment was intended to evaluate the pharmacokinetic behavior of each compound after a single intravenous injection and intragastric administration and to investigate the bioavailability after intragastric administration. Male SD rats aged 7 to 10 weeks were selected. The rats were fasted for at least 12 h before administration and were allowed to feed again 4 h after administration, with free access to water throughout the experiment. […]
observation-type: AUC(0-t) (µM·h)

compound="Cc1nc(N2CCC3(CC2)Cn2nccc2C3N)c(CO)nc1Sc1ccnc(N)c1Cl (stereo not shown) [Compound 1]" observation_type=AUC(0-t) value_measured=39.7

====

- assay-target: SHP2 (Homo sapiens)
- Sequence (Q06124 whole entry): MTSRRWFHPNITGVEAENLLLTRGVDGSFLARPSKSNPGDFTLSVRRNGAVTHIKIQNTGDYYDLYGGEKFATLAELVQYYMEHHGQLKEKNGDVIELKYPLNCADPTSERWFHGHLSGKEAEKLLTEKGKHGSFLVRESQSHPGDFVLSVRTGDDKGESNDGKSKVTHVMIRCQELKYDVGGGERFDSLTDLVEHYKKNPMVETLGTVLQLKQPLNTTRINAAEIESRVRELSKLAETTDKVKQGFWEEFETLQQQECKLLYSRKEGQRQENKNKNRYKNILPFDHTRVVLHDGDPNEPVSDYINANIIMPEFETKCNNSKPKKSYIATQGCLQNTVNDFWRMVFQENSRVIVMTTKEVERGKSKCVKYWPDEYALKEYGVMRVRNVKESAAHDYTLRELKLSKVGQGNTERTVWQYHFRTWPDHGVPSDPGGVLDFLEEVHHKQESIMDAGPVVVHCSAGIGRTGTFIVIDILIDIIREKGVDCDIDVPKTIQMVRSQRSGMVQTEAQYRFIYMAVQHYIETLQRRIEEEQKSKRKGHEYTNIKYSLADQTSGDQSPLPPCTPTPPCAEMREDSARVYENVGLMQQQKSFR
observation-type: IC50 (nM)

molecule="Cc1nc(N2CCC3(CC2)Cn2nccc2C3N)c(CO)nc1Sc1ccnc(N)c1F (centres unmarked) [Compound 6]" readout_unit=nM value_measured=3.15
molecule="CONc1nccc(Sc2nc(CO)c(N3CCC4(CC3)Cn3nccc3C4N)nc2C)c1Cl (centres unmarked) [Compound 8]" readout_unit=nM value_measured=3.99

====

- protocol-description: In-vivo pharmacokinetic study in mice
- Parameters: species or system male CD-1 mice
- setup-conditions: male, CD-1, mouse, plasma, oral administration, dose 2 mg/kg
observation-type: Cmax (nM)

molecule="CNc1nccc(Sc2nc(CO)c(N3CCC4(CC3)Cn3nccc3C4N)nc2C)c1Cl (stereo not drawn)" value_measured=927
molecule="Cc1nc(N2CCC3(CC2)Cn2nccc2C3N)c(CO)nc1Sc1ccnc(N)c1F (stereo not drawn)" value_measured=463
molecule="Cc1nc(N2CCC3(CC2)Cn2nccc2C3N)c(CO)nc1Sc1cccnc1C(F)(F)F (stereo not drawn)" value_measured=372

====

- protocol-description: In-vivo pharmacokinetic study in mice
- Set-up: species or system male CD-1 mice
- setup-conditions: male, CD-1, mouse, plasma, iv, injection (tail vein), dose 1 mg/kg
observation-type: AUC(0-t) (µM·h)

molecule="CNc1nccc(Sc2nc(CO)c(N3CCC4(CC3)Cn3nccc3C4N)nc2C)c1Cl (stereo not drawn)" readout_unit=µM·h value_measured=1.32
molecule="Cc1nc(N2CCC3(CC2)Cn2nccc2C3N)c(CO)nc1Sc1ccnc(N)c1F (stereo not drawn)" readout_unit=µM·h value_measured=0.638
molecule="Cc1nc(N2CCC3(CC2)Cn2nccc2C3N)c(CO)nc1Sc1cccnc1C(F)(F)F (stereo not drawn)" readout_unit=µM·h value_measured=0.974

====

- protocol-description: In-vivo pharmacokinetic study in rats
- setup-conditions: male, SD, rat, plasma, iv, injection (tail vein), dose 2 mg/kg
observation-type: AUC(0-t) (µM·h)

molecule="Cc1nc(N2CCC3(CC2)Cn2nccc2C3N)c(CO)nc1Sc1ccnc(N)c1Cl (stereo not shown)" readout_unit=µM·h value_measured=4.05

====

Entries and their measured bioavailability follow.
- protocol-description: In-vivo pharmacokinetic study in mice
- Design: species or system male CD-1 mice
- setup-conditions: male, CD-1, mouse, plasma, oral 2 mg/kg vs injection 1 mg/kg
observation-type: bioavailability (%)

compound="CNc1nccc(Sc2nc(CO)c(N3CCC4(CC3)Cn3nccc3C4N)nc2C)c1Cl (stereo not drawn) [Compound 2]" readout_unit=% value_measured=83.6
compound="Cc1nc(N2CCC3(CC2)Cn2nccc2C3N)c(CO)nc1Sc1cccnc1C(F)(F)F (stereo not drawn) [Compound 4]" readout_unit=% value_measured=58.6
compound="Cc1nc(N2CCC3(CC2)Cn2nccc2C3N)c(CO)nc1Sc1ccnc(N)c1F (stereo not drawn) [Compound 6]" readout_unit=% value_measured=89.8

====

- protocol-description: In-vivo pharmacokinetic study in mice
- Design: species or system male CD-1 mice
- setup-conditions: male, CD-1, mouse, plasma, iv, injection (tail vein), dose 2 mg/kg
observation-type: AUC(0-t) (µM·h)

compound="Cc1nc(N2CCC3(CC2)Cn2nccc2C3N)c(CO)nc1Sc1ccnc(N)c1Cl (stereo not shown)" value_measured=2.53

====

- protocol-description: In-vivo pharmacokinetic study in mice
- Set-up: species or system male CD-1 mice
- setup-conditions: male, CD-1, mouse, plasma, iv, injection (tail vein), dose 2 mg/kg
observation-type: clearance (mL/min/kg)

molecule="Cc1nc(N2CCC3(CC2)Cn2nccc2C3N)c(CO)nc1Sc1ccnc(N)c1Cl (stereo not shown) [Compound 1]" readout_unit=mL/min/kg value_measured=27.7

====

- System: H358 cells (NCIH358_LUNG)
- protocol-description: Anti-proliferation experiment on tumor cells with KRAS mutations, H358 (3D CellTiter-Glo)
- Type: cell-based
- setup-conditions: Homo sapiens, NCI-H358, 120 h, 5 days incubation with compound, ultra-low attachment plate
pIC50: −log10 of the molar value.
observation-type: pIC50

compound="Cc1nc(N2CCC3(CC2)Cn2nccc2C3N)c(C(N)=O)nc1Sc1ccnc(N)c1Cl (stereo not shown) [Compound 5]" value_measured=7.37
compound="Cc1nc(N2CCC3(CC2)Cn2nccc2C3N)c(CO)nc1Sc1cccnc1C(F)(F)F (stereo not shown) [Compound 4]" value_measured=6.84
compound="CNc1nccc(Sc2nc(CO)c(N3CCC4(CC3)Cn3nccc3C4N)nc2C)c1Cl (stereo not shown) [Compound 2]" value_measured=7.21
compound="Cc1nc(N2CCC3(CC2)Cn2nccc2C3N)c(CO)nc1Sc1ccnc(N)c1F (stereo not shown) [Compound 6]" value_measured=6.92
compound="Cc1nc(Sc2ccnc(N)c2Cl)cnc1N1CCC2(CC1)Cn1nccc1C2N (stereo not shown) [Compound 10]" value_measured=7.41
compound="Cc1nc(N2CCC3(CC2)Cn2nccc2C3N)c(CO)nc1Sc1cccc(Cl)c1Cl (stereo not shown) [Compound 3]" value_measured=7.21
compound="Cc1nc(N2CCC3(CC2)Cn2nccc2C3N)c(CO)nc1Sc1ccnc(N)c1Cl (stereo not shown) [Compound 1]" value_measured=7.66

====

- protocol-description: In-vivo pharmacokinetic study in rats
- setup-conditions: male, SD, rat, plasma, oral administration, dose 20 mg/kg
- Protocol: This experiment was intended to evaluate the pharmacokinetic behavior of each compound after a single intravenous injection and intragastric administration and to investigate the bioavailability after intragastric administration. Male SD rats aged 7 to 10 weeks were selected. The rats were fasted for at least 12 h before administration and were allowed to feed again 4 h after administration, with free access to water throughout the experiment. […]
observation-type: Cmax (µM)

compound="Cc1nc(N2CCC3(CC2)Cn2nccc2C3N)c(CO)nc1Sc1ccnc(N)c1Cl (stereo not shown)" readout_unit=µM value_measured=9.73

====

- protocol-description: In-vivo pharmacokinetic study in rats
- setup-conditions: male, SD, rat, plasma, oral 20 mg/kg vs injection 2 mg/kg
observation-type: bioavailability (%)

compound="Cc1nc(N2CCC3(CC2)Cn2nccc2C3N)c(CO)nc1Sc1ccnc(N)c1Cl (stereo not shown)" observation_type=bioavailability value_measured=98

====

Entries and their measured AUC(0-t) follow.
- protocol-description: In-vivo pharmacokinetic study in mice
- Parameters: species or system male CD-1 mice
- setup-conditions: male, CD-1, mouse, plasma, oral administration, dose 2 mg/kg
observation-type: AUC(0-t) (µM·h)

compound="Cc1nc(N2CCC3(CC2)Cn2nccc2C3N)c(CO)nc1Sc1ccnc(N)c1F (stereo not drawn)" observation_type=AUC(0-t) readout_unit=µM·h value_measured=0.817
compound="Cc1nc(N2CCC3(CC2)Cn2nccc2C3N)c(CO)nc1Sc1cccnc1C(F)(F)F (stereo not drawn)" observation_type=AUC(0-t) readout_unit=µM·h value_measured=0.99
compound="CNc1nccc(Sc2nc(CO)c(N3CCC4(CC3)Cn3nccc3C4N)nc2C)c1Cl (stereo not drawn)" observation_type=AUC(0-t) readout_unit=µM·h value_measured=2.04
